// data source = paper PMC9284491

Assay: Amcenestrant plasma pharmacokinetics (LC-MS/MS, non-compartmental analysis)
Type: in vivo, human
Details: human, plasma, oral, 400 mg, Part B, 400 mg QD, Day 22, N 13; read-out: Cmax, Mean ± SD
property: Cmax (µg/mL)
Numbers only, in µg/mL.

For record `O=C(O)c1ccc2c(c1)CCCC(c1ccc(Cl)cc1Cl)=C2c1ccc(O[C@H]2CCN(CCCF)C2)cc1` the listed Cmax is 4.38

----------
Assay: Amcenestrant plasma pharmacokinetics (LC-MS/MS, non-compartmental analysis)
Format: in vivo, human
Details: human, plasma, oral, 400 mg, Part B, 400 mg QD, Day 22, N 13; read-out: AUC0-24, Mean ± SD
Experimental: To evaluate pharmacokinetics in Part A, venous blood samples were collected pre-dose and at regular intervals on cycle 1, day 1 (up to 48 h), on day 3 (up to 24 h), and on day 22 (up to 24 h). […] The validated range was 5 ng/mL to 5000 ng/mL. In Part B, venous blood samples were collected pre-dose and at regular intervals on cycle 1, day 1 (up to 24 h), and on day 22 (up to 24 h). NCA was performed using Phoenix® software.
property: AUC(0-t) (ng·h/mL)
One number for each entry, in ng·h/mL.

AUC(0-t) recorded for this compound, O=C(O)c1ccc2c(c1)CCCC(c1ccc(Cl)cc1Cl)=C2c1ccc(O[C@H]2CCN(CCCF)C2)cc1 [amcenestrant] , is 43200
